- SUBJECT OF TEST: Pro-neuregulin-1, membrane-bound isoform (Homo sapiens)
- ASSAY TEXT: NRG1 binders on small-molecule microarrays, primary screen, psychiatric disease protein project, biochemical, small-molecule microarray, fluorescence 635/667 (AID 1075);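 also: score combines 667 nm spot fluorescence with signal to noise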
- APPLIED CONDITIONS: NRG1 binding, 635 nm fluorescence, higher = more signal
PARAMETER: composite z-score
Please state the value as a number alone, without comment.

// known answers, use as guide
COMPOUND | composite z-score
O=C1C2C=CC(C(O)c3c(F)cccc3Cl)N(Nc3ccccc3)C2C(=O)N1c1ccccc1 (stereo not drawn) | 1.86
O=C1NC(=O)C2C1C=CC(C(O)Cc1ccccc1)N2Nc1ccc(Cl)cc1Cl (stereo not drawn) | 2

From here, focus on the item given below.
*Q* Look up and report composite z-score, with Pro-neuregulin-1, membrane-bound isoform (Homo sapiens) as system, for CCCCCN1CC=CC23O[C@@H]4/C=C\CCCOC(=O)C4[C@H]2C(=O)N(CCCO)[C@@H]3C1=O (stereo partly drawn)
*A* 0.753

----------
Recorded composite z-score, one value per entry.
- SUBJECT OF TEST: Epidermal growth factor receptor (Homo sapiens)
- ASSAY TEXT: EGFR binders on small-molecule microarrays, primary screen, biochemical, small-molecule microarray, 635 nm fluorescence (AID 1104);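 also: score merges 667 nm emission intensity with spot signal to noise over triplicate slides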
- APPLIED CONDITIONS: EGFR binding, higher = more signal

// known answers, use as guide
MOLECULE | ENDPOINT VALUE
COCCOC(=O)N1C(=O)[C@@]2(c3cc(C#Cc4ccc(OC)cc4)ccc31)[C@H](C(=O)N1CCCCCCC1)[C@H]1C(=O)O[C@H](c3ccccc3)[C@H](c3ccccc3)N1[C@@H]2c1ccc(OCCO)cc1 | 1.13
CCN(CC)c1ccc(N2CC=CC34O[C@@H]5/C=C\CCC(C)OC(=O)C5[C@H]3C(=O)N(C(CO)C(C)C)[C@@H]4C2=O)cc1 (stereo partly drawn) | -0.532

From here, focus on the item given below.
*Q* Write down composite z-score measured for item CC(C)C(CO)N1C(=O)[C@@H]2[C@H]3C(=O)OCC=C[C@H]3OC23C=CCN(C(C)C)C(=O)[C@@H]13 (stereo partly drawn)
*A* 0.0755

----------
Recorded composite z-score, one value per entry.
- Tested on: glycogen synthase kinase-3 (GSK3A per assay name; protocol says GSK3B)
- ASSAY TEXT: GSK3 binders on small-molecule microarrays, primary screen, biochemical, small-molecule microarray, 635 nm fluorescence, GSK3A (AID 1103); also: the record names both GSK3A and GSK3B
- APPLIED CONDITIONS: small-molecule microarray binding, fluorescence 635 nm; higher = more signal
Please state the value as a number alone, without comment.

COMPOUND | composite z-score
O=C(NCC(F)(F)F)[C@@H]1c2ccccc2C(=O)N(C2CCCCC2)[C@H]1c1ccc(CO)cc1 | -0.0294

*Q* Write down composite z-score measured for item O=C1C2C=CC(C(O)C3CCCCC3)N(Nc3ccc([N+](=O)[O-])cc3)C2C(=O)N1c1ccccc1 (configuration not stated)
*A* 1.31

*Q* Write down composite z-score measured for item `COCCOC(=O)N1C(=O)[C@@]2(c3cc(C#Cc4ccc(OC)cc4)ccc31)[C@H](c1ccc(O)cc1)N1[C@H](c3ccccc3)[C@H](c3ccccc3)OC(=O)[C@H]1[C@@H]2C(=O)NC[C@H](O)c1ccccc1`
*A* 1.31

*Q* Write down composite z-score measured for item `O=C1c2ccccc2[C@](Cc2ccccc2I)(C(=O)NC2CC2)[C@H](c2ccc(CO)cc2)N1C1CCCCC1`
*A* 1.33

*Q* Write down composite z-score measured for item `CCCCC(=C=CC[C@@H](O)c1ccccc1OCCO)CCO`
*A* -1.3

*Q* Write down composite z-score measured for item `COCCOC(=O)N1C(=O)[C@@]2(c3cc(C#CC4(O)CCCCCC4)ccc31)[C@H](c1ccc(O)cc1)N1[C@H](c3ccccc3)[C@H](c3ccccc3)OC(=O)[C@H]1[C@@H]2C(=O)Nc1nc2ccccc2s1`
*A* 1.31

*Q* Write down composite z-score measured for item `C[N+](C)(C)CCCCNC(=O)[C@H]1C[C@H]2C(=O)N[C@@H](Cc3ccccc3)C(=O)N2[C@H]1c1ccc(O)cc1`
*A* 0.0215
